Hello, the source for this data is patent US20250145711A1, in case you need it.

target: T1, TRCW5 antigen (CD3δε-Fc-Avi) (biotinylated (site not stated)); assay: binding after heat
T1 construct: also called recombinant CD3
T1 sequence (chain, as listed by the source mutant limits assumed): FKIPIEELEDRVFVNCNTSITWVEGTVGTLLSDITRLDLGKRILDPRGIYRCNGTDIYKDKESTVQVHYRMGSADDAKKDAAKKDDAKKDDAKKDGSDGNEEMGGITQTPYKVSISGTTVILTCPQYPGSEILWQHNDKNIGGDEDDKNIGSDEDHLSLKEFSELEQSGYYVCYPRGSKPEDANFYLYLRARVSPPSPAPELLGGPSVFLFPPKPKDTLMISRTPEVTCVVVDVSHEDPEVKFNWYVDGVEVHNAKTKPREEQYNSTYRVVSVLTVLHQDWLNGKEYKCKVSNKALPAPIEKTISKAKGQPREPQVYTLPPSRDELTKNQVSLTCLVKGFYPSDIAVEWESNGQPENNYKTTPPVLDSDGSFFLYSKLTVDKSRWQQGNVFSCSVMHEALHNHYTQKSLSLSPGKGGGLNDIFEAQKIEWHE
readoutKind: % Retained 55° C.

Check out these entries, answers already filled in.
binder	% Retained 55° C.
CD3B2051 N106P (scFv) scFv: QVQLVQSGAEVKKPGSSVKVSCKASGYTFTRSTMHWVKQAPGQGLEWMGYINPSSAYTNYNQKFQGRVTLTADKSTSTAYMELSSLRSEDTAVYYCASPQVHYDYPGFPYWGQGTLVTVSSGGSEGKSSGSGSESKSTGGSEIVLTQSPATLSASPGERVTLSCSASSSVSYMNWYQQKPGQAPRRLIYDSSKLASGVPARFSGSGSGRDYTLTISSLEPEDFAVYYCQQWSRNPPTFGGGTKVEIK	87.7%
CD3B2051 (scFv) scFv: QVQLVQSGAEVKKPGSSVKVSCKASGYTFTRSTMHWVKQAPGQGLEWMGYINPSSAYTNYNQKFQGRVTLTADKSTSTAYMELSSLRSEDTAVYYCASPQVHYDYNGFPYWGQGTLVTVSSGGSEGKSSGSGSESKSTGGSEIVLTQSPATLSASPGERVTLSCSASSSVSYMNWYQQKPGQAPRRLIYDSSKLASGVPARFSGSGSGRDYTLTISSLEPEDFAVYYCQQWSRNPPTFGGGTKVEIK	104%

Q: Output % Retained 55° C. of CD3B2030 N106G (scFv) scFv: QVQLVQSGAEVKKPGSSVKVSCKASGYTFTRSTMHWVKQAPGQGLEWIGYINPSSAYTNYNQKFQGRVTLTADKSTSTAYMELSSLRSEDTAVYYCASPQVHYDYGGFPYWGQGTLVTVSSGGSEGKSSGSGSESKSTGGSEIVLTQSPATLSASPGERVTLSCSASSSVSYMNWYQQKPGQAPRRWIYDSSKLASGVPARFSGSGSGRDYTLTISSLEPEDFAVYYCQQWSRNPPTFGGGTKVEIK
A: 115%
